These entries and their values trace back to patent US20220296726A1.

The following binders are shown together with reported Kd values.
Target: T1, Human TREM2 extracellular domain (ECD), residues 19-131, C-terminally biotinylated, deglycosylated (human, UniProt Q9NZC2 19-131, C-terminally biotinylated; deglycosylated)
T1 construct: range 19-131; loaded on Superstreptavidin biosensors; also called triggering receptor expressed on myeloid cells 2; Human BLI (deglycosylated)
T1 sequence (looked up): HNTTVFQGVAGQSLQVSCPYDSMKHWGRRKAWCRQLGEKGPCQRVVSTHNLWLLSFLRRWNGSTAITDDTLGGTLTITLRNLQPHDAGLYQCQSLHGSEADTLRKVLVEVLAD
Assay: BLI steady state, deglycosylated human TREM2 ECD on sensor
*1 amine or outer side, *2 acyl side, *3 side chain or, on linkers, in order; H or OH if unused. Bridges are numbered along the chain shown (N, C = ends). [ ]: non-standard residue; d: D form. TATA = O=C(CC[*:1])N1CN(C(=O)CC[*:2])CN(C(=O)CC[*:3])C1; 1Nal = N[C@@H](Cc1cccc2ccccc12)C(=O)O
Express your answer in nM, writing the number without its unit.

# count of solved cases: 2
BINDER	MEASURED METRIC	UNIT TEXT	RESULT
Ac-CSEYCF[1Nal]PFYHC-NH2 (linker 1-5-12 via TATA; SMILES CC(=O)N[C@H]1CSCCC(=O)N2CN3CN(C2)C(=O)CCSC[C@H](NC(=O)[C@H](Cc2ccc(O)cc2)NC(=O)[C@H](CCC(=O)O)NC(=O)[C@H](CO)NC1=O)C(=O)N[C@@H](Cc1ccccc1)C(=O)N[C@@H](Cc1cccc2ccccc12)C(=O)N1CCC[C@H]1C(=O)N[C@@H](Cc1ccccc1)C(=O)N[C@@H](Cc1ccc(O)cc1)C(=O)N[C@@H](Cc1c[nH]cn1)C(=O)N[C@H](C(N)=O)CSCCC3=O) [BCY19669]	Kd	nM	2000
Ac-CSEYCFWPFYNC-NH2 (linker 1-5-12 via TATA; SMILES CC(=O)N[C@H]1CSCCC(=O)N2CN3CN(C2)C(=O)CCSC[C@H](NC(=O)[C@H](Cc2ccc(O)cc2)NC(=O)[C@H](CCC(=O)O)NC(=O)[C@H](CO)NC1=O)C(=O)N[C@@H](Cc1ccccc1)C(=O)N[C@@H](Cc1c[nH]c2ccccc12)C(=O)N1CCC[C@H]1C(=O)N[C@@H](Cc1ccccc1)C(=O)N[C@@H](Cc1ccc(O)cc1)C(=O)N[C@@H](CC(N)=O)C(=O)N[C@H](C(N)=O)CSCCC3=O) [BCY20083]	Kd	nM	1840

Turning now to a further binder:
Task item: Looking for the measured Kd of CSEYCFWXFYHC (N-terminal acetyl (Ac); CiSEYCiiFW[Cis-HyP]FYHCiii; Ci, Cii, Ciii on TATA scaffold) [BCY20067] , can you help?
Reply: 23600
